experiment: in vivo; details: BALB/c, mouse, plasma, iv, 10 mg/kg
Square brackets hold non-standard residues; d marks the D form. Peptide text beside a SMILES is read from it.
quantity measured: level at 24 h (ng/mL)

- CC(C)C[C@@H](NC(=O)[C@@H](Cc1c[nH]c2ccccc12)NC(=O)[C@@H](Cc1c[nH]c2ccccc12)NC(=O)[C@H](N)Cc1c[nH]c2ccccc12)C(=O)N[C@H](CCCNC(=N)N)C(=O)N[C@H](CCCNC(=N)N)C(=O)N[C@H](CCCNC(=N)N)C(=O)N[C@H](Cc1c[nH]c2ccccc12)C(N)=O [D-horine] (H-[dW][dW][dW][dL][dR][dR][dR][dW]-NH2; N-terminus and C-terminus assumed): 170

----------
Entries and their measured MIC E. coli ATCC 25922 follow.
test system: E. coli ATCC 25922; type: cell-based, Escherichia coli; conditions: ATCC 25922
Peptide text beside a SMILES is read from it.
quantity measured: MIC E. coli ATCC 25922

* CC(C)C[C@H](NC(=O)[C@H](CC(C)C)NC(=O)[C@H](CCCCN)NC(=O)CNC(=O)[C@H](CC(C)C)NC(=O)[C@H](CC(C)C)NC(=O)[C@H](CO)NC(=O)[C@H](CC(C)C)NC(=O)[C@H](C)NC(=O)[C@H](CO)NC(=O)[C@H](CC(C)C)NC(=O)[C@H](CC(C)C)NC(=O)CN)C(N)=O [DFT508, GLLSALSLLGKLL] (H-GLLSALSLLGKLL-NH2; N-terminus assumed) | 3.1 µM
* CC(C)C[C@H](NC(=O)[C@H](C)NC(=O)[C@H](CCCCN)NC(=O)CNC(=O)[C@H](CC(C)C)NC(=O)[C@H](C)NC(=O)[C@H](CCCCN)NC(=O)[C@H](CC(C)C)NC(=O)[C@H](C)NC(=O)[C@H](CO)NC(=O)[C@H](CC(C)C)NC(=O)[C@H](C)NC(=O)CN)C(N)=O [DFT530, GALSALKALGKAL] (H-GALSALKALGKAL-NH2; N-terminus assumed) | >25 µM
* CC(C)C[C@H](NC(=O)[C@H](C)NC(=O)[C@H](CCCCN)NC(=O)CNC(=O)[C@H](CC(C)C)NC(=O)[C@H](C)NC(=O)[C@H](CCCCN)NC(=O)[C@H](CC(C)C)NC(=O)[C@H](C)NC(=O)[C@H](CO)NC(=O)[C@H](CC(C)C)NC(=O)[C@H](CC(C)C)NC(=O)CN)C(N)=O [DFT529, GLLSALKALGKAL] (H-GLLSALKALGKAL-NH2; N-terminus assumed) | 25 µM

----------
Tested on: K. pneumoniae ATCC 13883
Format: cell-based, Klebsiella pneumoniae
Settings: ATCC 13883
Protocol: The antibacterial activity of peptides was evaluated using a standard broth microdilution protocol with minor modifications as described (Mishra, et al. (2012) J. Am. Chem. Soc., 134:12426-12429). […] After treatment with 10 μL of peptide solutions two fold diluted to various concentrations, microplates were incubated at 37° C. overnight and read on a ChroMate® 4300 Microplate Reader at 630 nm (GMI, Ramsey, MN). […]
Peptide text beside a SMILES is read from it.
Measured MIC K. pneumoniae ATCC 13883, listed per entry for reference.
quantity measured: MIC K. pneumoniae ATCC 13883

- CC[C@H](C)[C@H](NC(=O)[C@H](CCCCN)NC(=O)[C@H](CCCNC(=N)N)NC(=O)[C@H](CC(C)C)NC(=O)[C@H](Cc1c[nH]c2ccccc12)NC(=O)[C@@H](N)Cc1c[nH]c2ccccc12)C(=O)N[C@@H](Cc1c[nH]c2ccccc12)C(=O)N[C@@H](Cc1c[nH]c2ccccc12)C(=O)O [WW292, WWLRKIWW] (H-WWLRKIWW-OH; N-terminus and C-terminus assumed): >50 µM
- CC[C@H](C)[C@H](NC(=O)[C@H](CCCCN)NC(=O)[C@@H](N)CCCNC(=N)N)C(=O)N[C@@H](Cc1c[nH]c2ccccc12)C(=O)N[C@@H](Cc1c[nH]c2ccccc12)C(=O)N[C@@H](Cc1c[nH]c2ccccc12)C(=O)N[C@@H](Cc1c[nH]c2ccccc12)C(=O)N[C@@H](CC(C)C)C(N)=O [WW295, RKIWWWWL] (H-RKIWWWWL-NH2; N-terminus and C-terminus assumed): 3.1 to 6.2 µM
- CC[C@H](C)[C@H](NC(=O)[C@H](CCCCN)NC(=O)[C@H](CCCNC(=N)N)NC(=O)[C@@H](N)CC(C)C)C(=O)N[C@@H](Cc1c[nH]c2ccccc12)C(=O)N[C@@H](Cc1c[nH]c2ccccc12)C(=O)N[C@@H](Cc1c[nH]c2ccccc12)C(=O)N[C@@H](Cc1c[nH]c2ccccc12)C(=O)O [WW294, LRKIWWWW] (H-LRKIWWWW-OH; N-terminus and C-terminus assumed): 6.2 to 12.5 µM
- CC[C@H](C)[C@H](NC(=O)[C@H](CCCCN)NC(=O)[C@H](CCCNC(=N)N)NC(=O)[C@H](CC(C)C)NC(=O)[C@H](Cc1c[nH]c2ccccc12)NC(=O)[C@H](Cc1c[nH]c2ccccc12)NC(=O)[C@H](Cc1c[nH]c2ccccc12)NC(=O)[C@@H](N)Cc1c[nH]c2ccccc12)C(=O)O [WW298, WWWWLRKI] (H-WWWWLRKI-OH; N-terminus and C-terminus assumed): 6.2 to 12.5 µM

----------
test: Hemolytic assay; format: cell-based, human; conditions: human, human red blood cells, 2% (v/v)
Peptide text beside a SMILES is read from it.
quantity measured: HC50 at 1 h

- CC(C)C[C@H](NC(=O)[C@H](CC(C)C)NC(=O)[C@H](CCCCN)NC(=O)[C@H](CC(C)C)NC(=O)CNC(=O)[C@H](CC(C)C)NC(=O)[C@H](CCCCN)NC(=O)[C@H](CC(C)C)NC(=O)[C@H](CC(C)C)NC(=O)[C@H](CC(C)C)NC(=O)[C@H](CCCCN)NC(=O)[C@H](CC(C)C)NC(=O)CN)C(N)=O [DFT564, GLKLLLKLGLKLL] (H-GLKLLLKLGLKLL-NH2; N-terminus and C-terminus assumed): < 25 µM
- C[C@H](NC(=O)[C@H](Cc1c[nH]c2ccccc12)NC(=O)[C@H](Cc1c[nH]c2ccccc12)NC(=O)[C@H](Cc1c[nH]c2ccccc12)NC(=O)[C@H](Cc1c[nH]c2ccccc12)NC(=O)[C@H](CCCNC(=N)N)NC(=O)[C@H](CCCNC(=N)N)NC(=O)[C@@H](N)CCCNC(=N)N)C(N)=O [WW308, RRRWWWWA] (H-RRRWWWWA-NH2; N-terminus and C-terminus assumed): > 200 µM
- CC(C)C[C@H](NC(=O)[C@H](Cc1c[nH]c2ccccc12)NC(=O)[C@H](Cc1c[nH]c2ccccc12)NC(=O)[C@H](Cc1c[nH]c2ccccc12)NC(=O)[C@H](CCCNC(=N)N)NC(=O)[C@H](CCCNC(=N)N)NC(=O)[C@H](CCCNC(=N)N)NC(=O)[C@@H](N)CCCNC(=N)N)C(N)=O [WW309, RRRRWWWL] (H-RRRRWWWL-NH2; N-terminus and C-terminus assumed): > 200 µM
- CC(C)C[C@H](NC(=O)[C@H](CC(C)C)NC(=O)[C@H](CCCCN)NC(=O)[C@H](CC(C)C)NC(=O)[C@H](CCCCN)NC(=O)[C@H](CC(C)C)NC(=O)[C@H](CO)NC(=O)[C@H](CC(C)C)NC(=O)[C@H](CC(C)C)NC(=O)[C@H](CC(C)C)NC(=O)[C@H](CO)NC(=O)[C@H](CC(C)C)NC(=O)CN)C(N)=O [DFT563, GLSLLLSLKLKLL] (H-GLSLLLSLKLKLL-NH2; N-terminus and C-terminus assumed): > 300 µM
- CC(C)C[C@H](NC(=O)[C@H](CC(C)C)NC(=O)[C@H](CCCCN)NC(=O)[C@H](CC(C)C)NC(=O)CNC(=O)[C@H](CC(C)C)NC(=O)[C@H](CO)NC(=O)[C@H](CC(C)C)NC(=O)[C@H](CC(C)C)NC(=O)[C@H](CC(C)C)NC(=O)[C@H](CCCCN)NC(=O)[C@H](CC(C)C)NC(=O)CN)C(N)=O [DFT561, GLKLLLSLGLKLL] (H-GLKLLLSLGLKLL-NH2; N-terminus and C-terminus assumed): > 300 µM

----------
tested on: human red blood cells (hRBCs); experiment: Hemolytic assay; assay type: cell-based
Peptide text beside a SMILES is read from it.
Measured HL50 by item
quantity measured: HL50

- CC(C)C[C@H](NC(=O)[C@H](CC(C)C)NC(=O)[C@H](CCCCN)NC(=O)CNC(=O)[C@H](CC(C)C)NC(=O)[C@H](CO)NC(=O)[C@H](CC(C)C)NC(=O)[C@H](CO)NC(=O)[C@H](CC(C)C)NC(=O)[C@H](CC(C)C)NC(=O)CN)C(N)=O [DFT524, GLLSL-SL-GKLL] (H-GLLSLSLGKLL-NH2; N-terminus and C-terminus assumed): >300 µM
- CC[C@H](C)[C@H](NC(=O)[C@H](CCCNC(=N)N)NC(=O)[C@H](CCCNC(=N)N)NC(=O)[C@H](CC(C)C)NC(=O)[C@H](CCCNC(=N)N)NC(=O)[C@H](Cc1c[nH]c2ccccc12)NC(=O)[C@@H](N)Cc1c[nH]c2ccccc12)C(=O)N[C@@H](Cc1c[nH]c2ccccc12)C(N)=O [WW302, WWRLRRIW] (H-WWRLRRIW-NH2; N-terminus and C-terminus assumed): >200 µM
- CC[C@H](C)[C@H](NC(=O)[C@H](CCCNC(=N)N)NC(=O)[C@H](CCCNC(=N)N)NC(=O)[C@H](CC(C)C)NC(=O)[C@H](Cc1c[nH]c2ccccc12)NC(=O)[C@H](Cc1c[nH]c2ccccc12)NC(=O)[C@@H](N)Cc1c[nH]c2ccccc12)C(=O)N[C@@H](CCCNC(=N)N)C(N)=O [WW305, WWWLRRIR] (H-WWWLRRIR-NH2; N-terminus and C-terminus assumed): >200 µM
- CC(C)C[C@H](NC(=O)[C@H](CC(C)C)NC(=O)[C@H](CCCCN)NC(=O)CNC(=O)[C@H](CC(C)C)NC(=O)[C@H](CO)NC(=O)[C@H](CO)NC(=O)[C@H](CC(C)C)NC(=O)CN)C(N)=O [DFT526, GL-S--SL-GKLL] (H-GLSSLGKLL-NH2; N-terminus and C-terminus assumed): >300 µM
- CC(C)C[C@H](NC(=O)[C@H](CC(C)C)NC(=O)[C@H](CCCCN)NC(=O)CNC(=O)[C@H](CC(C)C)NC(=O)[C@H](C)NC(=O)[C@H](CCCCN)NC(=O)[C@H](CC(C)C)NC(=O)[C@H](C)NC(=O)[C@H](CO)NC(=O)[C@H](CC(C)C)NC(=O)[C@H](C)NC(=O)CN)C(N)=O [DFT528, GALSALKALGKLL] (H-GALSALKALGKLL-NH2; N-terminus assumed): >50 µM
- CC[C@H](C)[C@H](NC(=O)[C@H](CCCNC(=N)N)NC(=O)[C@H](CCCNC(=N)N)NC(=O)[C@H](CC(C)C)NC(=O)[C@H](Cc1c[nH]c2ccccc12)NC(=O)[C@H](Cc1c[nH]c2ccccc12)NC(=O)[C@@H](N)CCCNC(=N)N)C(=O)N[C@@H](Cc1c[nH]c2ccccc12)C(N)=O [WW300, RWWLRRIW] (H-RWWLRRIW-NH2; N-terminus and C-terminus assumed): >200 µM
